target: c-MET receptor tyrosine kinase, GST-c-MET(969-1390) (Homo sapiens (Human), UniProt P08581); test: EPK c-MET profiling assay (LanthaScreen TR-FRET kinase assay); type: biochemical; settings: recombinant GST-c-MET(969-1390), 2 μM ATP, 60 minutes at room temperature; read-out: c-Met biochem (IC50 nM)
Sequence (P08581 969-1390): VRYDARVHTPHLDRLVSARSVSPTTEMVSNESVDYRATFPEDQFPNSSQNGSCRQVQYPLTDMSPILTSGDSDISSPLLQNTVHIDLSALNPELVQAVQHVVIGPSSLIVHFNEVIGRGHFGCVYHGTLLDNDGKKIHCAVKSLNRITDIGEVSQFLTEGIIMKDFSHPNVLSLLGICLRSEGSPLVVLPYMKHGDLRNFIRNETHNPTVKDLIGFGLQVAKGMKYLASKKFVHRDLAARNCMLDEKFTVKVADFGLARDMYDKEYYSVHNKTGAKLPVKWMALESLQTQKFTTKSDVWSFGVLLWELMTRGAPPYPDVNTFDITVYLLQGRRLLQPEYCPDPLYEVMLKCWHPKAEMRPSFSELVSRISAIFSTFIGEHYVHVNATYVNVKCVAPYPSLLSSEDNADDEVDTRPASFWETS
observation_type: IC50

1) C/C(=N\OCCO)c1ccc2nnc(C(F)(F)c3ccc4ncccc4c3)n2n1 1.5 nM

These data points were gathered from patent US8507676B2.
